src = ChEMBL document CHEMBL1150387

- ASSAY_SYSTEM: Cyclin-dependent kinase 2 (Homo sapiens)
- EXPERIMENT_DESCRIPTION: Inhibition of CDK2 at 10 uM by HTRF assay relative to control
Parameter: inhibition. Scope: all listed entries.
Write down the numeric answer in % and omit the unit.

Some solved cases for reference:
- Cc1ccc(CN2CCN(c3nccc(C(C#N)c4ccccn4)n3)CC2)cc1 (configuration not stated): 7
- Cc1cccc(Nc2nccc3c2CN(C(=O)c2cc(C)n(C)c2C)CC3)c1: 8
- Cc1cccc(CN2CCN(c3cc(N(C)c4cccc(C)c4)ncn3)CC2)c1: 0
- COC[C@@H]1CCCN1C(=O)[C@@H]1CCCN1c1nccc(Nc2ccccc2)n1: 0
- Cc1cccc(Nc2nccc(Nc3cccc(C(=O)N(C)CCc4ccccn4)c3)n2)c1: 28
- O=C(COc1ccccc1)N1CCN(c2nccc(Nc3ccc4ncsc4c3)n2)CC1: 8

## Task Specify measured inhibition for `Cc1cccc(Oc2ccnc(N3CCN(C(=O)c4c(C)noc4C)CC3)n2)c1` .
## Result 2

====

- ASSAY_SYSTEM: High affinity nerve growth factor receptor (Homo sapiens)
- EXPERIMENT_DESCRIPTION: Inhibition of TrkA at 10 uM by HTRF assay relative to control
Parameter: inhibition. Scope: all listed entries.
Write down the numeric answer in % and omit the unit.

- Cc1cccc(N(C)c2cc(Nc3cccc(C(=O)NCCCn4ccnc4)c3)ncn2)c1: 7
- COC[C@@H]1CCCN1C(=O)[C@@H]1CCCN1c1cc(Nc2cccc(OC)c2)nc(N)n1: 9
- COc1cccc(Nc2cc(N3CCC[C@H]3C(=O)NCCc3ccc(O)cc3)nc(N)n2)c1: 7
- Nc1nc(N2CCOCC2)cc(N2CCC(C(=O)NCc3cccs3)CC2)n1: 9

## Task Specify measured inhibition for `Nc1nc(Nc2ccc(C(=O)NCCc3ccncc3)cc2)cc(N2CCOCC2)n1` .
## Result 7

## Task Specify measured inhibition for `Cc1cccc(N(C)c2cc(Nc3cccc(C(=O)N(CC(C)C)CC(C)C)c3)ncn2)c1` .
## Result 9

## Task Specify measured inhibition for `O=C(COc1ccccc1)N1CCN(c2nccc(Nc3ccc4ncsc4c3)n2)CC1` .
## Result 9

## Task Specify measured inhibition for `Cc1cccc(N(C)c2cc(N3CCN(C(=O)Cc4c[nH]c5ccccc45)CC3)ncn2)c1` .
## Result 2

## Task Specify measured inhibition for `Cc1cccc(Nc2nccc(Nc3cccc(C(=O)NCc4ccc(N(C)C)cc4)c3)n2)c1` .
## Result 7

====

- EXPERIMENT_DESCRIPTION: Inhibition of AMPKalpha at 10 uM by HTRF assay relative to control
Quick rule for you: inhibition at 8% or higher means label 1, lower means label 0.

These solved cases illustrate the format of a correct answer.
* Cc1cccc(Nc2nccc(Nc3cccc(C(=O)N(C)CCc4ccccn4)c3)n2)c1 | label 1
* Cc1cccc(N(C)c2cc(Nc3cccc(C(=O)NCc4ccncc4)c3)ncn2)c1 | label 0
* Cc1cccc(N(C)c2cc(N3CCN(CC(=O)Nc4nc(-c5ccccc5)cs4)CC3)ncn2)c1 | label 1

## Task Would you say `CC(=O)N1CCN(C(=O)c2cccc(Nc3cc(N(C)c4cccc(C)c4)ncn3)c2)CC1` shows inhibition at minimum 8%?
## Result label 0

## Task Would you say Cc1ccc(CN2CCN(c3nccc(C(C#N)c4ccccn4)n3)CC2)cc1 (stereo unspecified) shows inhibition at minimum 8%?
## Result label 0

## Task Would you say `Nc1nc(Nc2ccc3ncsc3c2)cc(N2CCC[C@H]2C(=O)N[C@@H](CO)c2ccccc2)n1` shows inhibition at minimum 8%?
## Result label 1

## Task Would you say `O=C(NCc1ccncc1)c1cccc(Nc2cc(Nc3cccc(Br)c3)ncn2)c1` shows inhibition at minimum 8%?
## Result label 1

## Task Would you say `Nc1nc(Nc2ccccc2)cc(N2CCC(C(=O)NCCc3ccccn3)CC2)n1` shows inhibition at minimum 8%?
## Result label 0

## Task Would you say `Cc1cccc(Nc2ncnc3c2CN(C(=O)c2ccc(N(C)C)c4ccccc24)CC3)c1` shows inhibition at minimum 8%?
## Result label 1

## Task Would you say `O=C(NCc1cccnc1)c1cccc(-c2ccc(Nc3ccc4ncsc4c3)nn2)c1` shows inhibition at minimum 8%?
## Result label 1

## Task Would you say `COC[C@@H]1CCCN1C(=O)[C@@H]1CCCN1c1nccc(Nc2ccccc2)n1` shows inhibition at minimum 8%?
## Result label 1

## Task Would you say `COc1ccc(-c2noc(CN3CCN(c4cc(Nc5cccc(O)c5)ncn4)CC3)n2)cc1` shows inhibition at minimum 8%?
## Result label 0

## Task Would you say `COc1cccc(Nc2cc(N3CCC[C@H]3C(=O)NCCN3CCCCC3)nc(N)n2)c1` shows inhibition at minimum 8%?
## Result label 0

## Task Would you say `Nc1nc(N2CCOCC2)cc(N2CCC(C(=O)NCCc3ccc(O)cc3)CC2)n1` shows inhibition at minimum 8%?
## Result label 1

## Task Would you say `Nc1nc(Nc2ccc3ncsc3c2)cc(N2CCC[C@H]2C(=O)NCCc2cccc(I)c2)n1` shows inhibition at minimum 8%?
## Result label 0

====

Parameter: inhibition. Scope: all listed entries.
- ASSAY_SYSTEM: High affinity nerve growth factor receptor (Homo sapiens)
- EXPERIMENT_DESCRIPTION: Inhibition of TrkA at 10 uM by HTRF assay relative to control
Write down the numeric answer in % and omit the unit.

Some solved cases for reference:
* Cc1cccc(N(C)c2cc(Nc3cccc(C(=O)N4CCCC5CCCCC54)c3)ncn2)c1 (centres undefined) | 12
* O=C(c1nc(SCc2ccc(Cl)cc2)n2ccccc12)N1CCN(c2ncnc3c2CN(Cc2ccccc2)CC3)CC1 | 5
* O=C(NCCc1ccc(O)cc1)c1cccc(Nc2nccc(Nc3ccc4ncsc4c3)n2)c1 | 27
* COc1ccc(-c2noc(CN3CCN(c4cc(Nc5cccc(O)c5)ncn4)CC3)n2)cc1 | 7
* Cc1cccc(Oc2ccnc(N3CCN(C(=O)c4c(C)noc4C)CC3)n2)c1 | 8
* Cc1cccc(Oc2ccnc(N3CCC[C@H]3C(=O)NCCCn3ccnc3)n2)c1 | 7
* CC(=O)N1CCN(C(=O)c2cccc(Nc3cc(N(C)c4cccc(C)c4)ncn3)c2)CC1 | 12
* Nc1nc(Nc2ccc3ncsc3c2)cc(N2CCC[C@H]2C(=O)N[C@@H](CO)c2ccccc2)n1 | 9

Next up:
## Task Find inhibition for `Nc1nc(Nc2ccc3ncsc3c2)cc(N2CCC[C@H]2C(=O)NCCc2cccc(I)c2)n1` on High affinity nerve growth factor receptor (Homo sapiens) and write it down.
## Result 5
